system: Staphylococcus aureus; assay: Minimum inhibitory concentration against Staphylococcus aureus OC4172 in presence of mouse serum; assay type: functional
METRIC: MIC (µg/mL)
Report as a plain number; the unit µg/mL is understood.

1. CC[C@H]1OC(=O)C(C)C(=O)[C@H](C)[C@@H](O[C@@H]2O[C@H](C)C[C@H](N(C)C)[C@H]2O)[C@](C)(OC(=O)N/C=C/c2ccc(-n3cccn3)cc2)C[C@@H](C)C(=O)[C@H](C)[C@H]2NC(=O)O[C@@]21C (some centres undefined)
0.25

Input line: For CC[C@H]1OC(=O)C(C)C(=O)[C@H](C)[C@@H](O[C@@H]2O[C@H](C)C[C@H](N(C)C)[C@H]2O)[C@](C)(OC(=O)N/C=C/c2ccc(-c3ncccn3)cc2)C[C@@H](C)C(=O)[C@H](C)[C@H]2NC(=O)O[C@@]21C (some centres undefined) , what is its reported MIC?
Output line: 0.25

Input line: For CC[C@H]1OC(=O)C(C)C(=O)[C@H](C)[C@@H](O[C@@H]2O[C@H](C)C[C@H](N(C)C)[C@H]2O)[C@](C)(OC(=O)N/C=C/c2ccccc2)C[C@@H](C)C(=O)[C@H](C)[C@H]2NC(=O)O[C@@]21C (some centres undefined) , what is its reported MIC?
Output line: 2

Input line: For CC[C@H]1OC(=O)[C@H](C)C(=O)[C@H](C)[C@@H](O[C@@H]2O[C@H](C)C[C@H](N(C)C)[C@H]2O)[C@](C)(OC)C[C@@H](C)C(=O)[C@H](C)[C@H]2N(CCCCn3cnc(-c4cccnc4)c3)C(=O)O[C@]12C , what is its reported MIC?
Output line: 0.5
